The origin of these recorded values is ChEMBL document CHEMBL3785038.

# System Name: Bromodomain-containing protein 3 (Homo sapiens)
# Sequence (Q15059 whole entry): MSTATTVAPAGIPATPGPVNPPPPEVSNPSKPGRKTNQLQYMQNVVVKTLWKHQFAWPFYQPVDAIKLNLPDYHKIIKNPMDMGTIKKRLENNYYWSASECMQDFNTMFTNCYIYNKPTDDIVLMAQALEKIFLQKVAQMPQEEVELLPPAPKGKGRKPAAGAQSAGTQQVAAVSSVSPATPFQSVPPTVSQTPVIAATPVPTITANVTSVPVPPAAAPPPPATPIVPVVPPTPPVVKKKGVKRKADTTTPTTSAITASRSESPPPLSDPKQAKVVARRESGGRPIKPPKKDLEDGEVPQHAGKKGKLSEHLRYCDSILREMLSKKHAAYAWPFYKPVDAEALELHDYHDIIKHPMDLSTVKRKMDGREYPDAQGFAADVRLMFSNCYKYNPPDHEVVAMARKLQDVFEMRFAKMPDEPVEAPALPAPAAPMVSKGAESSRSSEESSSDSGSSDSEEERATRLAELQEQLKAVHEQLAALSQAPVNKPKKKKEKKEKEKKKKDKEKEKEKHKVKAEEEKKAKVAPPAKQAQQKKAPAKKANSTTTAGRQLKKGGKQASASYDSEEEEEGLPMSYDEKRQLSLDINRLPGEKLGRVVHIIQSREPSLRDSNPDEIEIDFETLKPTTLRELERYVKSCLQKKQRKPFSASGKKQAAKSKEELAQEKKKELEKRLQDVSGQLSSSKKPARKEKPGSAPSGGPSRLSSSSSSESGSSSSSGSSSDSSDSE
# Assay Procedure: Binding affinity to partial length human BRD3 bromodomain 2 by isothermal titration calorimetry
Measurement Type: Kd (µM)
Hi! Could you send only the number? It should be in µM, unit omitted.

Query (compound): CCc1c(C(=O)Nc2ccc(F)c(S(=O)(=O)N3CCOCC3)c2)[nH]c(C)c1C(C)=O ; field requested: Kd
18

Given the compound CCc1c(C(=O)Nc2cc(S(=O)(=O)N(CC)CC)ccc2O)[nH]c(C)c1C(=O)CO , what is its reported Kd?
11

Which Kd reading was recorded for the compound CCc1c(C(=O)Nc2cc(S(=O)(=O)N(CC)CC)ccc2O)[nH]c(C)c1C(C)=O ?
2.4

Sample CCc1c(C(=O)Nc2cccc(OCC(N)=O)c2)[nH]c(C)c1C(C)=O — what was its Kd?
23

Need Kd, item CCc1c(C(=O)N(C)Cc2cccc(C(N)=O)c2)[nH]c(C)c1C(C)=O
19

* * *

# Species on record: Homo sapiens
# Assay Procedure: Selectivity ratio of Kd for partial length human […] to Kd for partial length human BRD4 bromodomain 1
Assign Selectivity ratio to each entry below.
// no unit string in output, number only

// returns reported Selectivity ratio for input CCc1c(C(=O)Nc2cc(S(=O)(=O)N(CC)CC)ccc2O)[nH]c(C)c1C(C)=O
159

Can you share its Selectivity ratio? I mean this compound: CCN(CC)S(=O)(=O)c1ccc(O)c(NC(=O)c2[nH]c(C)c(C(C)=O)c2C(C)C)c1
5.04

What does the record list as Selectivity ratio for CCc1c(C(=O)Nc2cc(S(=O)(=O)N(CC)CC)ccc2O)[nH]c(C)c1C(N)=O ?
59.3

Quick one: Selectivity ratio of CCc1c(C(=O)Nc2cccc(OCC(N)=O)c2)[nH]c(C)c1C(C)=O ?
4.01

Suppose we examine the compound CCN(CC)S(=O)(=O)c1ccc(O)c(NC(=O)c2[nH]c(C)c(C(C)=O)c2C)c1 ; what Selectivity ratio value has been reported?
11.8

Selectivity ratio lookup needed for CCc1c(C(=O)N(C)Cc2cccc(C(N)=O)c2)[nH]c(C)c1C(C)=O , thanks.
4.37

* * *

# System Name: Bromodomain-containing protein 4 (Homo sapiens, UniProt O60885)
# Assay Procedure: Binding affinity to partial length human BRD4 bromodomain 1 assessed as change in melting temperature at 200 uM by RT-PCR-based differential scanning fluorimetry
Measurement Type: deltaTm

Using the record for CCc1c(C(=O)Nc2cc(S(=O)(=O)NC)ccc2C)[nH]c(C)c1C(C)=O , report its deltaTm.
3.1 K

Fill in: deltaTm of CCCc1c(C(=O)Nc2cccc(S(=O)(=O)N3CCCCCC3)c2)[nH]c(C)c1C(C)=O is ___
5.3 K

I'd like to know its deltaTm. The molecule in question is CCc1c(C(=O)Nc2cccc(OCC(N)=O)c2)[nH]c(C)c1C(C)=O
3 K

Any idea what its deltaTm is? The molecule is CCc1c(C(=O)Nc2cc(S(=O)(=O)N(CC)CC)c(C)cc2O)[nH]c(C)c1C(C)=O
3.5 K

I would be grateful if you could share the reported deltaTm for CCc1c(C(=O)Nc2cc(S(=O)(=O)N(CC)CC)ccc2O)[nH]c(C)c1C(C)=O .
6.7 K

Fill blank: measured deltaTm of the molecule CCc1c(C(=O)Nc2cccc(S(=O)(=O)N(CC)CC)c2)[nH]c(C)c1C(C)=O is ____.
3.3 K

Please report the recorded deltaTm for CCc1c(C(=O)Nc2cc(S(=O)(=O)N(CC)CC)ccc2O)[nH]c(C)c1C(=O)CO .
4.4 K

Please look up its deltaTm: CCc1c(C(=O)Nc2cc(S(=O)(=O)N(CC)CC)ccc2O)[nH]c(C)c1C(N)=O
5.6 K

Could you share which deltaTm value was measured for CCN(CC)S(=O)(=O)c1ccc(O)c(NC(=O)c2[nH]c(C)c(C(C)=O)c2C)c1 ?
2.1 K

I would be grateful if you could share the reported deltaTm for CCc1c(C(=O)N(C)Cc2cccc(C(N)=O)c2)[nH]c(C)c1C(C)=O .
2.4 K

Please report the recorded deltaTm for CCc1c(C(=O)Nc2ccc(F)c(S(=O)(=O)N3CCOCC3)c2)[nH]c(C)c1C(C)=O .
2.8 K
